The values you see were collected from PubChem BioAssay (NCI).

The molecules listed here are annotated with their TGI.
system: TK-10 renal; assay: NCI tumour cell line growth inhibition, 48 h
Give just the number in µM; leave the unit off.

Consider the following illustrative entries.
# molSmiles, TGI, µM
data = [
    ("CCN1CCN(c2ccc(Nc3ccnc4ccc5c(nnn5C)c34)cc2)CC1", 45.6),
    ("O=C(CN1CCN(CCCOc2c(-c3ccccc3)oc3ccccc3c2=O)CC1)Nc1ccc(Cl)cc1C(=O)c1ccccc1Cl", 54.1),
    ("C/C(=N/Nc1nc2ccccc2n1C)c1ccccn1", 32.6),
    ("CSc1nc(Cl)c(Br)c(Sc2nc(N)nc3nc[nH]c23)n1", 20.9),
    ("Cc1ccc(/C=C2/SC(Nc3nc(-c4csc(NC5=NC(=O)/C(=C\\c6ccc(C)cc6)S5)n4)cs3)=NC2=O)cc1", 26.6),
    ("CCC/C(=N/N=C(N)N)c1ccc(NC(=O)c2cc3cc(OC)ccc3[nH]2)cc1", 39),
    ("Cc1cc(S(N)(=O)=O)c(S/C(CC(C)C)=N\\Nc2ccc([N+](=O)[O-])cc2)cc1Cl", 8.33),
    ("COc1cc(OC)c2c(=O)cc(-c3ccccc3F)[nH]c2c1", 84.4),
    ("N[C@@H]1CCCC[C@H]1N.O=C([O-])C(=O)[O-].[Pt+4]", 74),
]

Please examine the following record next.
The molecule `Nc1nc(Cl)c2ncn(Cc3ccc(CCl)cc3)c2n1` showed TGI equal to 40.5
